- target-or-test-system: Cytochrome P450 1A2 (Homo sapiens)
- assay-procedure: Cytochrome panel assay with activity outcomes
- cond: recombinant CYP, pro-luciferin dealkylation, luminescence, p450-cyp1a2; series mostly up to 57.1 µM
About 5,700 (36%) of roughly 16,000 compounds were called active. About 24% were inconclusive and are not listed. The call rests on the fitted dose curve; in most records, active means well fitted curve in the direction sought with a large enough effect; inconclusive means small, poorly fitted or top-dose-only effect, or effect the other way; inactive means no such curve, though single readings can be large or run the other way. This is one part of the list.
Labels: true (active), false (inactive)

molecular-string	classification
C=CCc1ccccc1OC[C@H](O)CNC(C)C	true
CC(C)(C)NC[C@H](O)COc1cccc2[nH]c(=O)[nH]c12	false
Cc1noc(C)c1-c1ccc2ncnc(N(C)C)c2c1	true

====

- target-or-test-system: Cytochrome P450 1A2 (Homo sapiens) (UniProt P05177)
- Sequence (P05177 whole entry, looked up): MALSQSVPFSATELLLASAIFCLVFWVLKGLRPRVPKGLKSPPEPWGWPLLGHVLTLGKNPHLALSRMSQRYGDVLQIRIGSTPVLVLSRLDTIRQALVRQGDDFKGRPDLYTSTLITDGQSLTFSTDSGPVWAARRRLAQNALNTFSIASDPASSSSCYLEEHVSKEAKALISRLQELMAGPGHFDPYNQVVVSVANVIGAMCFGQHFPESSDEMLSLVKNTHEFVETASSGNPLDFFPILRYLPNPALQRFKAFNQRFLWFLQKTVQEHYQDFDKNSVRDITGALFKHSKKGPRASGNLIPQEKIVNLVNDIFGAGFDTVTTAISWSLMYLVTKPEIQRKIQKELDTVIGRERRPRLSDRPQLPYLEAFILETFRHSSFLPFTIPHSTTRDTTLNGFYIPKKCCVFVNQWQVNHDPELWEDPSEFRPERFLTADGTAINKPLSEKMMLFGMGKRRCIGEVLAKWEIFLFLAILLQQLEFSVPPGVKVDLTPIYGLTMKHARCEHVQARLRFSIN
- assay-procedure: Cytochrome panel assay with activity outcomes
- cond: recombinant CYP, pro-luciferin dealkylation, luminescence, p450-cyp1a2; series mostly up to 57.1 µM
The campaign covered roughly 16,000 compounds. About 5,700 (36%) were called active. Not shown: some 24% with an inconclusive outcome. The call rests on the fitted dose curve; in most records, active means well fitted curve in the direction sought with a large enough effect; inconclusive means small, poorly fitted or top-dose-only effect, or effect the other way; inactive means no such curve, though single readings can be large or run the other way. The list shows a part of the results.
Outcome codes: label 1 for active, label 0 for inactive

compound	classification
Oc1cc2c(cc1O)CN(C(=S)NCCc1ccc(Cl)cc1)CCC2	label 1
C=CCn1c(C)cc(C(=O)CN2C(=O)c3ccccc3C2=O)c1C	label 0
O=C(O)[C@H]1C[C@H](C(=O)O)N1	label 0
Clc1ccc(COc2ccccn2)cc1Cl	label 0
CN(CCCNC(=O)c1ccc(/C=N/O)nc1)CCCN(C)Cc1ccccc1	label 0
COc1cccc(-c2[nH]nc3c2C(c2ccc(C)o2)C(C#N)=C(N)O3)c1 (stereo not given)	label 1
CCOC(=O)C(C)Sc1ncc(OC)c(Sc2ccc(Cl)cc2)n1 (stereo not given)	label 1
Cc1cc(C)c2cc(CN(Cc3nnnn3Cc3ccc(F)cc3)C3CCCC3)c(=O)[nH]c2c1	label 1
N#Cc1cccc(-c2cncnc2-n2ccnc2)c1	label 1
COc1ccccc1-c1cc(NCc2ccccc2)ncn1	label 1
O=C(NCCN1CCCC1)C1(S(=O)(=O)c2ccc(Cl)cc2)CC1	label 0
CCCn1nc(Oc2nc(NCC)nc(NC(C)C)n2)ccc1=O	label 0
NCCCCCCCCCCN	label 0
COc1ccc(C(=O)c2cnc3ccccc3c2-c2ccccc2)cc1	label 1
N=C(N)SCc1nc2ccccc2c(=O)n1-c1ccccc1Cl	label 1
NS(=O)(=O)c1cc2c(cc1Cl)N[C@@H]([C@@H]1C[C@@H]3C=C[C@H]1C3)NS2(=O)=O	label 0
Cc1ccc(NC(=S)NCCN2CCOCC2)cc1C	label 0
Cc1cc(C(=O)CC#N)c(C)n1CC(F)(F)F	label 1
Cc1ccc(C(=O)NCc2ccc(N3CCN(C(=O)OC(C)(C)C)CC3)cc2)cc1	label 0
Cc1ccc(SCCNC(=S)Nc2ccc(C)c(C)c2)cc1	label 1
O=C(O)[C@@H]1C[C@@H](C(=O)O)N1	label 1
C[C@@H](/C=C\c1cccc(Oc2ccc(F)cc2)c1)N(O)C(N)=O	label 1
Cc1cc(/C=C2\SC(=S)NC2=O)c(C)n1C	label 1
CSc1nc(Cl)cc(N(CCO)CCO)n1	label 0
COc1ccccc1-c1cncnc1NCc1cccs1	label 1
COc1ccc(C2C(C#N)=C(N)Oc3n[nH]c(C)c32)cc1CN1CCN(c2ccc(F)cc2)CC1 (stereo not given)	label 0
CCOC(=O)C1=C(O)C(=O)N(Cc2ccccc2)C1	label 1
Cc1ccc(SCc2nnc(NC(=O)c3ccccc3)s2)cc1	label 0
CN(C)Cc1ccccc1-c1cncnc1NCc1cccs1	label 1
Cc1ccc(SCc2ccc(C(=O)NCc3ccncc3)cc2)cc1	label 1

Value source: PubChem BioAssay AID1851
